Target: T1, cynomolgus FGFR3b expressed with a C-terminal myc-myc-hexahistidine tag (mfFGFR3b.mmH) (cynomolgus)
T1 construct: also called REGN3521; mf FGFR3b ecto (R357G)(E23-G377;R357G).mmH
T1 chain: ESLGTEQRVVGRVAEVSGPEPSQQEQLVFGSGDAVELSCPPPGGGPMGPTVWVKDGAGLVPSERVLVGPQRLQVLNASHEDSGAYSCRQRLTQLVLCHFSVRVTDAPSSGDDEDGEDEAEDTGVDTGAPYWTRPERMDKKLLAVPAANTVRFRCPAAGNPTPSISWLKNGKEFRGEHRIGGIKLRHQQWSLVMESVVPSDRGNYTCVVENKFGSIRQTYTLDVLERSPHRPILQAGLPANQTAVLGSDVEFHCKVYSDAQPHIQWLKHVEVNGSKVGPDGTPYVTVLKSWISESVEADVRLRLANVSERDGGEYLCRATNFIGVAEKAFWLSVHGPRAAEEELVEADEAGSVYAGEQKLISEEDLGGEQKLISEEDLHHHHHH
Test: SPR Biacore, mAb captured on anti-hFc, 25C
Simple rule here: t½ less than 5 h is fulfilled, otherwise not fulfilled.

{"columns": ["BINDER", "CATEGORY LABEL"],
 "data": [
  ["H4H30063P (antibody, human IgG4 S228P, kappa, V domains shown, HCVR 2, LCVR 10; also called REGN15684) VH: QVQLQESGPGLVKPSETLSLTCTVSGDSINSYFWSWIRQLPGKELEWIGHIYSSGSTRYNPSLQSRVTISIDTSKNQFSLKLSSVTAADTAVYYCARGASAVDYWGQGTLVTVSS VL: EIVLTQSPGTLSLSPGERATLSCRTSQSISSGYLAWYQQKPGQAPRLLIYGASRRATGIPDRFSGSGSGTDFTLTISRLEPEDFVVYYCQQYGSSPYTFGQGTKLEIKR", "fulfilled"],
  ["H4H30061P (antibody, human IgG4 S228P, kappa, V domains shown) VH: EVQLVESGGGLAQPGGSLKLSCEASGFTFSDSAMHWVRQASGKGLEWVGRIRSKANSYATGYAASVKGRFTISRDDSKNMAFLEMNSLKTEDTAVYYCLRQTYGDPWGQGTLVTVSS VL: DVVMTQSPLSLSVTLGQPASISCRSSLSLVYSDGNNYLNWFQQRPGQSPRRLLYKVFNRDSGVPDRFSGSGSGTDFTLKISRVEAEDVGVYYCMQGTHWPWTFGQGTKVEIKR", "fulfilled"],
  ["H4H30076P (antibody, human IgG4 S228P, kappa, V domains shown) VH: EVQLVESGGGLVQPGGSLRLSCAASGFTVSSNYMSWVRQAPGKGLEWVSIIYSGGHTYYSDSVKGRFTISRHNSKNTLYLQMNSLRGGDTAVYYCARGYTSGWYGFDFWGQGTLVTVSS VL: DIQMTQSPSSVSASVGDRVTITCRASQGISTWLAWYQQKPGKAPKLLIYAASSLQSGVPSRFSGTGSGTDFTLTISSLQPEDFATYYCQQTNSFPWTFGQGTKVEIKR", "not fulfilled"],
  ["H4H30071P (antibody, human IgG4 S228P, kappa, V domains shown, HCVR 42, LCVR 50) VH: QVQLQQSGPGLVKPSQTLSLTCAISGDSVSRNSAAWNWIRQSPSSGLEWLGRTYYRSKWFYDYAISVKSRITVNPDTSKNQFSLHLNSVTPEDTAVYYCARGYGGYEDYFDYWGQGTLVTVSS VL: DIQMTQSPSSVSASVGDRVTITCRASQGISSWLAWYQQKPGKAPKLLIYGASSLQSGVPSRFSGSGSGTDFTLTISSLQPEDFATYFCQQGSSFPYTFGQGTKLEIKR", "not fulfilled"],
  ["H4H30045P (antibody, human IgG4 S228P, kappa, V domains shown, HCVR 179, LCVR 187) VH: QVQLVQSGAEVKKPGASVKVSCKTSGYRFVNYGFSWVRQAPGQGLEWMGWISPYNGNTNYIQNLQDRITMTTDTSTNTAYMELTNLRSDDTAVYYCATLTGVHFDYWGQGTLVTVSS VL: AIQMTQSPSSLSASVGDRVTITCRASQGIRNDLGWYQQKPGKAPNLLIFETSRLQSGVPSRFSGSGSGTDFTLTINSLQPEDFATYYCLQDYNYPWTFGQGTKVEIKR", "fulfilled"]
]}

The reported numbers originate from patent US20240158515A1.
